B1: Chromodomain-helicase-DNA-binding protein 4, residues 365 to 417; numbered along this chain, Q14839 (parent)
chain: YETDHQDYCEVCQQGGEIILCDTCPRAYHMVCLDPDMEKAPEGKWSCPHCEKE

Variants of: B1
procedure-text: abundance fitness (aPCA) (normalised: wild type 0, dead -1); higher = more abundant; growth selection in yeast, the domain comes from the species named
experimental-setup: Homo sapiens
Task for the reader: assign each of the following variants its reported abundance fitness.
Please respond with just the number, no unit label.

Reported abundance fitness for H49A : what is it? -0.281

Input L20F -0.096

Input A40Y -0.462

Input C32M -0.687

Input P35C -0.1

Input I19L -0.145

Input C32I -0.916

Input R26C -0.462

Input C9A -0.929

Input D7Q 0.119

Input I19Y -0.629

Input P48N -0.678

Input I18F 0.158

Input R26F -0.288

Input L20A 0.08

Input H49L -0.213

Input P35S 0.125

Input T23Y -0.296

Input K39S -0.203

Input L20I 0.023

Input E53V -0.356

Input P35V -0.04

Input C24S -0.681

Input D36S 0.202

Input K52E 0.136
